Data provenance: ChEMBL document CHEMBL1201862

TESTED_ON: Sentrin-specific protease 8 (Homo sapiens, UniProt Q96LD8)
Sequence (Q96LD8 whole entry): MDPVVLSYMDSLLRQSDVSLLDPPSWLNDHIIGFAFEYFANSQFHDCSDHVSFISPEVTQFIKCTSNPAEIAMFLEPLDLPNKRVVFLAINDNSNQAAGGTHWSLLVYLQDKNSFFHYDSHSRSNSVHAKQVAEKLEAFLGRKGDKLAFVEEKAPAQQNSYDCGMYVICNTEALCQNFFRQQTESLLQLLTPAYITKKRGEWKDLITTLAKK
MEASUREMENT_DESCRIPTION: inhibition of human SENP8 cleavage activity – biochemical, luminescence, SAR follow-up (AID 504501)
Format: functional
The source made the active and inactive calls.
Outcomes: active, inactive

# SMILES_REPRESENTATION, CLASS_ASSIGNMENT
data = [
    ("CCCCc1ccc2nc(NC(=O)c3cccs3)sc2c1", "active"),
    ("CCCC(=O)Nc1ccc(-c2nc3cc(Cl)ccc3o2)cc1", "inactive"),
    ("COC(=O)c1ccc(NC(=O)c2ccc3c(c2)OCO3)cc1", "inactive"),
    ("Oc1ccccc1-c1nc(-c2ccccc2)no1", "active"),
]

----------
Below, each of the molecules is paired with its reported EC50 value.
Tested on: H4
MEASUREMENT_DESCRIPTION: Luminescence Cell-Based Dose Response HTS to Identify Activators of 5'UTR Stem-Loop Driven Prion Protein mRNA Translation in H4 Neuroglioblastoma Cells. [Related pubchem assays: 1829 (Project Summary), 1814 (Primary HTS)]
Assay type: functional
CONDITION_SUMMARY: Homo sapiens
Activity calls are given as the source filed them.

# MOLECULE, EC50
measured = [
    ("O=C(/C=C/c1cnc2ccccc2n1)NC12CC3CC(CC(C3)C1)C2", "0.921 µM (active)"),
    ("c1ccc(CN2CCC(NC3=NN=C(c4ccc5c(c4)OCCO5)CS3)CC2)cc1", "48.5 µM (active)"),
    ("O=C(/N=c1\\nc2ccccn2s1)c1ccccc1", "5.73 µM (active)"),
    ("CC1CCC(NC(=O)C2CCN(c3c4c(nc5ncnn35)CCC4)CC2)CC1 (centres undefined)", "22.3 µM (active)"),
]

----------
TESTED_ON: Replicative DNA helicase DnaB (Mycobacterium tuberculosis, UniProt P9WMR3)
Sequence (P9WMR3 whole entry): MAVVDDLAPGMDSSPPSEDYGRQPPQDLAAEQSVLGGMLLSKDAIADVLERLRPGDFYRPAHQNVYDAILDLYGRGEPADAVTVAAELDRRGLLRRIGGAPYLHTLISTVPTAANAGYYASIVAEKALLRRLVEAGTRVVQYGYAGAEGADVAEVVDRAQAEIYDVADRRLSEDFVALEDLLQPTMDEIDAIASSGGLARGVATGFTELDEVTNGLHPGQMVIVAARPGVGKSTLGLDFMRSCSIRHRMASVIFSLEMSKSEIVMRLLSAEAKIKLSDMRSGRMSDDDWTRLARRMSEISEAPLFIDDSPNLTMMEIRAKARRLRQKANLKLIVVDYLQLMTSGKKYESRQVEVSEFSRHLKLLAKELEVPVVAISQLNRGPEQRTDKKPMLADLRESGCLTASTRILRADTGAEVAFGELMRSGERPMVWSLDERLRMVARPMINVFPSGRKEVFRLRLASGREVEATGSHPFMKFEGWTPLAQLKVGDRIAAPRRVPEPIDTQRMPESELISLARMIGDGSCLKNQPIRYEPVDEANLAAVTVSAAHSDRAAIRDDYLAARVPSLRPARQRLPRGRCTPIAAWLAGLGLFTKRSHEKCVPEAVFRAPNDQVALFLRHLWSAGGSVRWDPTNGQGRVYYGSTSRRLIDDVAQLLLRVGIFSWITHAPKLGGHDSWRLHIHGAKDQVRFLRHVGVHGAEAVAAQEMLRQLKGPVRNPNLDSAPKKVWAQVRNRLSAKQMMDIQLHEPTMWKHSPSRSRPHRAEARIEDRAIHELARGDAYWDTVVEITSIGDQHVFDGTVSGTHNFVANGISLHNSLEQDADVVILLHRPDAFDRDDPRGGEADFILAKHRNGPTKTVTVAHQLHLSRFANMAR
MEASUREMENT_DESCRIPTION: DnaB intein splicing inhibitors, dose response, biochemical, cell-free fluorescence (AID 449749)
Format: functional
The source made the active and inactive calls.
Outcome codes: active, inactive

# COMPOUND, TESTED_ON, CLASS_ASSIGNMENT
measured = [
    ("N#CC1=C(N)Oc2[nH]nc(-c3cccs3)c2C1c1cccs1 (stereo not given)", "Replicative DNA helicase DnaB (Mycobacterium tuberculosis, UniProt P9WMR3)", "active"),
    ("O=C(Nc1ccc(Cl)cc1)C1c2cccc[n+]2CC(=O)N1Cc1ccc2c(c1)OCO2 (stereo not given)", "Replicative DNA helicase DnaB (Mycobacterium tuberculosis, UniProt P9WMR3)", "inactive"),
    ("CN(C1=C(NC(=O)c2ccc(Cl)cc2)C(=O)c2ccccc2C1=O)c1ccccc1", "Replicative DNA helicase DnaB (Mycobacterium tuberculosis, UniProt P9WMR3)", "active"),
    ("COCCOC(=O)C1=C(C)N=C2SCCC(=O)N2C1c1ccc(OC(=O)c2ccco2)cc1 (stereo not given)", "Replicative DNA helicase DnaB (Mycobacterium tuberculosis, UniProt P9WMR3)", "active"),
    ("C=C1C(=O)O[C@@H]2C[C@@H](C)[C@@H]3C=CC(=O)[C@@]3(C)[C@@H](OC(=O)CC(=O)O[C@H]3[C@@H]4C(=C)C(=O)O[C@@H]4C[C@@H](C)[C@@H]4C=CC(=O)[C@]43C)[C@H]12", "Replicative DNA helicase DnaB (Mycobacterium tuberculosis, UniProt P9WMR3)", "active"),
    ("Cc1nn(-c2ccccc2)c(Cl)c1CN(C(=O)CCl)c1cccc2ccccc12", "Replicative DNA helicase DnaB (Mycobacterium tuberculosis, UniProt P9WMR3)", "active"),
    ("CCN(CC)CCN1C(=O)c2cccc3cc(N)cc(c23)C1=O", "Replicative DNA helicase DnaB (Mycobacterium tuberculosis, UniProt P9WMR3)", "active"),
    ("COc1cc(C2C(C#N)=C(N)Oc3c2c(-c2ccccc2)nn3-c2ccccc2)cc(OC)c1OC (stereo not given)", "Replicative DNA helicase DnaB (Mycobacterium tuberculosis, UniProt P9WMR3)", "active"),
    ("CCCSc1cc(NCCOC(=O)CCC)c([N+](=O)[O-])c2nonc12", "Replicative DNA helicase DnaB (Mycobacterium tuberculosis, UniProt P9WMR3)", "active"),
    ("COCc1n[nH]c2c1C1(CCSCC1)C(C#N)=C(N)O2", "Replicative DNA helicase DnaB (Mycobacterium tuberculosis, UniProt P9WMR3)", "active"),
]
